molecular target: GST-Hu-p50 (Homo sapiens, UniProt P19838 7-356); assay: protein-binding microarray (PBM); PBM: ~300 nM protein, 6 mM HEPES pH 7.8, 80 mM KCl, 0.5 mM EDTA, 0.5 mM EGTA, 6% glycerol, 35 ng/ul poly-dIdC, 1% milk, 1 h, room temperature; high values mean tight binding; conditions: dsDNA, one strand shown
Sequence (P19838 7-356): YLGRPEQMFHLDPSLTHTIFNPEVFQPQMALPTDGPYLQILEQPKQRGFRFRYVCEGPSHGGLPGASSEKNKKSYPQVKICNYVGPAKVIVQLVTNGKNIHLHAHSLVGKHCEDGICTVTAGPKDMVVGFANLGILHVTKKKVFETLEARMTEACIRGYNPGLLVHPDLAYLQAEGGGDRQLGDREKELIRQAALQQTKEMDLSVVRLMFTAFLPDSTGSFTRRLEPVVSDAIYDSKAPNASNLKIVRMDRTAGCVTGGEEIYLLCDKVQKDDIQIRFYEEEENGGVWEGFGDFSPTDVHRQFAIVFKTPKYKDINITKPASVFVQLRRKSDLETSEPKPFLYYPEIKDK
ENDPOINT_NAME: binding signal (z-score)
Just the number in z-score, nothing appended.

### Prompt Given `CCGATTAACATCAGGGGAAGAAATGATGTTAATCGGGTCTTGATTCGCTTGACGCTGCTG` , state its recorded binding signal.
### Response 5.16

### Prompt Tell me the measured binding signal of `CCGATTAACATCAACTGGGAAAATGATGTTAATCGGGTCTTGATTCGCTTGACGCTGCTG` , please.
### Response 2

### Prompt Query: binding signal; subject: `CCGATTAACATCAAAATAATCCCTGATGTTAATCGGGTCTTGATTCGCTTGACGCTGCTG`
### Response 3.58

### Prompt Which value of binding signal has been reported for `CCGATTAACATCAGGGAAACTACTGATGTTAATCGGGTCTTGATTCGCTTGACGCTGCTG` in the records?
### Response 3.85

### Prompt Reported binding signal for `CCGATTAACATCAGAAATTCCCATGATGTTAATCGGGTCTTGATTCGCTTGACGCTGCTG` : what is it?
### Response 4.64

### Prompt Consider the sequence `CCGATTAACATCAAGAGTTCCCCTGATGTTAATCGGGTCTTGATTCGCTTGACGCTGCTG` and give its measured binding signal.
### Response 5.23

### Prompt So what's the measured binding signal for this one? `CCGATTAACATCATGTCTATCGGTGATGTTAATCGGGTCTTGATTCGCTTGACGCTGCTG`
### Response 1.14

### Prompt Would you mind telling me what binding signal value was observed for `CCGATTAACATCAGGCCTCCCCCTGATGTTAATCGGGTCTTGATTCGCTTGACGCTGCTG` ?
### Response 4.37

### Prompt Item `CCGATTAACATCAAAACAACCCCTGATGTTAATCGGGTCTTGATTCGCTTGACGCTGCTG` has what recorded binding signal?
### Response 3.88

---

Target: GST-Nv-NF-kB (Ser allele) (Nematostella vectensis, UniProt A7UNT2 2-411)
Sequence: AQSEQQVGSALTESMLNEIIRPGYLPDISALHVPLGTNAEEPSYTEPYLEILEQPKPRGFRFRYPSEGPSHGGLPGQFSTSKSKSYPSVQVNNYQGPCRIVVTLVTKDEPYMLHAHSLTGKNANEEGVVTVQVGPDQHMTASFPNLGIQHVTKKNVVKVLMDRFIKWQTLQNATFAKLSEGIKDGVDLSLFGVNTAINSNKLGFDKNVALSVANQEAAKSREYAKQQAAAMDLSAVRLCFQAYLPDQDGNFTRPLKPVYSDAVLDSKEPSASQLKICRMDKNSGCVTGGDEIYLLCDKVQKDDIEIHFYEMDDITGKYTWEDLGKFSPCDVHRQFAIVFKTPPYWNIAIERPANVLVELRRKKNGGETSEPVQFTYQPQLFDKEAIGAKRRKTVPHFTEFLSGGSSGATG
Assay: protein-binding microarray (PBM); PBM: ~300 nM protein, 6 mM HEPES pH 7.8, 80 mM KCl, 0.5 mM EDTA, 0.5 mM EGTA, 6% glycerol, 35 ng/ul poly-dIdC, 1% milk, 1 h, room temperature; high values mean tight binding
Conditions: dsDNA, one strand shown
Values of binding signal strictly less than 4 z-score map to fulfilled, and values of at least 4 z-score map to not fulfilled.

### Prompt hey, is binding signal for `CCGATTAACATCAGTAATTCCCATGATGTTAATCGGGTCTTGATTCGCTTGACGCTGCTG` lower than 4 z-score or not?
### Response fulfilled

### Prompt Confirm or reject: binding signal of `CCGATTAACATCAGAACATCCCCTGATGTTAATCGGGTCTTGATTCGCTTGACGCTGCTG` lies strictly below 4 z-score
### Response not fulfilled

### Prompt State whether 4 z-score exceeds binding signal recorded for `CCGATTAACATCAGAACATTCCCTGATGTTAATCGGGTCTTGATTCGCTTGACGCTGCTG` .
### Response fulfilled

### Prompt Does this sequence meet the criterion binding signal < 4 z-score? `CCGATTAACATCACGGAATTCCCTGATGTTAATCGGGTCTTGATTCGCTTGACGCTGCTG`
### Response not fulfilled

### Prompt Is it true that binding signal reported for `CCGATTAACATCAAGGGAAACCCTGATGTTAATCGGGTCTTGATTCGCTTGACGCTGCTG` is less than 4 z-score?
### Response not fulfilled

### Prompt Regarding `CCGATTAACATCAGGGGATAAAATGATGTTAATCGGGTCTTGATTCGCTTGACGCTGCTG` , kindly confirm whether its binding signal is beneath 4 z-score.
### Response not fulfilled

### Prompt I wonder whether `CCGATTAACATCAATAAATACCCTGATGTTAATCGGGTCTTGATTCGCTTGACGCTGCTG` has binding signal below 4 z-score. Can you tell?
### Response not fulfilled

### Prompt hey, is binding signal for `CCGATTAACATCAGGGGGTAGGATGATGTTAATCGGGTCTTGATTCGCTTGACGCTGCTG` lower than 4 z-score or not?
### Response fulfilled

---

target: GST-Hu-p50 (Homo sapiens, UniProt P19838 7-356); test: protein-binding microarray (PBM); PBM: ~300 nM protein, 6 mM HEPES pH 7.8, 80 mM KCl, 0.5 mM EDTA, 0.5 mM EGTA, 6% glycerol, 35 ng/ul poly-dIdC, 1% milk, 1 h, room temperature; Ap Aiptasia and Nv Nematostella (sea anemones) / Co Capsaspora / Aq Amphimedon (sponge) / Dm Drosophila / Hu human; RHD is the Rel homology domain; high values mean tight binding; settings: dsDNA, one strand shown
ENDPOINT_NAME: binding signal (z-score)
Record the value in z-score, omitting the unit from your answer.

### Prompt Please report the recorded binding signal for `CCGATTAACATCAGGGGGTGTACTGATGTTAATCGGGTCTTGATTCGCTTGACGCTGCTG` .
### Response 4.44

### Prompt Reported binding signal for `CCGATTAACATCATAATTCCCAATGATGTTAATCGGGTCTTGATTCGCTTGACGCTGCTG` : what is it?
### Response 2.73

### Prompt Would you mind telling me what binding signal value was observed for `CCGATTAACATCAGGGGCGGGAATGATGTTAATCGGGTCTTGATTCGCTTGACGCTGCTG` ?
### Response 2.9

### Prompt Look up binding signal for this sequence: `CCGATTAACATCAGATATTTCCCTGATGTTAATCGGGTCTTGATTCGCTTGACGCTGCTG`
### Response 3.91

### Prompt Given the sequence `CCGATTAACATCAGGAAAAAACCTGATGTTAATCGGGTCTTGATTCGCTTGACGCTGCTG` , what is its reported binding signal?
### Response 2.63

### Prompt Item `CCGATTAACATCAGGATCTCCCCTGATGTTAATCGGGTCTTGATTCGCTTGACGCTGCTG` has what recorded binding signal?
### Response 4.48

### Prompt What does the record list as binding signal for `CCGATTAACATCAGGCGTCCCCCTGATGTTAATCGGGTCTTGATTCGCTTGACGCTGCTG` ?
### Response 4.92

### Prompt // binding signal lookup, key: `CCGATTAACATCAAAAAAATTTCTGATGTTAATCGGGTCTTGATTCGCTTGACGCTGCTG`
### Response 1.66

### Prompt Field request: binding signal | item: `CCGATTAACATCACCAAAATCCCTGATGTTAATCGGGTCTTGATTCGCTTGACGCTGCTG`
### Response 2.9

### Prompt Quick one: binding signal of `CCGATTAACATCAAAATTCCCTCTGATGTTAATCGGGTCTTGATTCGCTTGACGCTGCTG` ?
### Response 5.19

### Prompt Form field: reported binding signal of `CCGATTAACATCATACAAGGGAGTGATGTTAATCGGGTCTTGATTCGCTTGACGCTGCTG`
### Response 1.09

### Prompt Quick one: binding signal for `CCGATTAACATCAGGACTATCCCTGATGTTAATCGGGTCTTGATTCGCTTGACGCTGCTG` ?
### Response 1.81

### Prompt Could you tell me which binding signal is on file for `CCGATTAACATCACGGGTTTCCCTGATGTTAATCGGGTCTTGATTCGCTTGACGCTGCTG` ?
### Response 3.17

### Prompt Return reported binding signal; argument: `CCGATTAACATCAGGGGTATAACTGATGTTAATCGGGTCTTGATTCGCTTGACGCTGCTG`
### Response 1.68

### Prompt Name the reported binding signal value associated with the sequence `CCGATTAACATCACGTTTTTCCCTGATGTTAATCGGGTCTTGATTCGCTTGACGCTGCTG`
### Response 3.49

### Prompt Entry `CCGATTAACATCAGATCTTCCCCTGATGTTAATCGGGTCTTGATTCGCTTGACGCTGCTG` : reported binding signal = ?
### Response 5.04

### Prompt GET /values?readout=binding signal&item= `CCGATTAACATCACCCAACCCCCTGATGTTAATCGGGTCTTGATTCGCTTGACGCTGCTG`
### Response 4.28

### Prompt Any idea what binding signal was measured for `CCGATTAACATCAGGGAATCAGATGATGTTAATCGGGTCTTGATTCGCTTGACGCTGCTG` ?
### Response 1.19
